Provenance of the data: ChEMBL document CHEMBL3217568

The next entries give measured Ki for Cytochrome P450 1B1 (Homo sapiens, UniProt Q16678).

>  <Sample Smiles>
COc1cc(O)cc(/C=C/c2ccc(O)cc2)c1

>  <Ki, nM>
900

$$$$
>  <Sample Smiles>
COc1ccc(/C=C/c2cc(O)cc(O)c2)cc1

>  <Ki, nM>
2100

$$$$

* * *

# Species: Homo sapiens
# Experiment Summary: Selectivity ratio of IC50 for human CYP1A1 to IC50 for human CYP1B1

>  <Sample Smiles>
COc1ccc(/C=C/c2ccccc2OC)c(OC)c1

>  <Ratio IC50>
22

$$$$
>  <Sample Smiles>
COc1ccc(/C=C/c2c(OC)cc(OC)cc2OC)c(OC)c1

>  <Ratio IC50>
30

$$$$
>  <Sample Smiles>
COc1ccc(/C=C/c2ccc(OC)c(OC)c2)c(OC)c1

>  <Ratio IC50>
4.6

$$$$
>  <Sample Smiles>
COc1ccc(/C=C/c2ccc(OC)cc2OC)cc1

>  <Ratio IC50>
12

$$$$
>  <Sample Smiles>
COc1ccc(/C=C/c2c(OC)ccc(OC)c2OC)c(OC)c1

>  <Ratio IC50>
127

$$$$
>  <Sample Smiles>
COc1ccc(/C=C/c2ccc(OC)cc2OC)c(OC)c1

>  <Ratio IC50>
25

$$$$
>  <Sample Smiles>
COc1cccc(/C=C/c2ccc(OC)cc2OC)c1

>  <Ratio IC50>
6.5

$$$$
>  <Sample Smiles>
COc1ccc(/C=C/c2cc(OC)c(OC)c(OC)c2)c(OC)c1

>  <Ratio IC50>
4.2

$$$$
>  <Sample Smiles>
COc1ccc(/C=C/c2ccccc2)c(OC)c1

>  <Ratio IC50>
20

$$$$
>  <Sample Smiles>
COc1ccc(OC)c(/C=C/c2ccc(OC)cc2OC)c1

>  <Ratio IC50>
100

$$$$
>  <Sample Smiles>
COc1ccc(/C=C/c2c(OC)cccc2OC)c(OC)c1

>  <Ratio IC50>
194

$$$$
>  <Sample Smiles>
COc1ccc(/C=C/c2cc(OC)c(OC)cc2OC)c(OC)c1

>  <Ratio IC50>
14

$$$$
>  <Sample Smiles>
COc1ccc(/C=C/c2cccc(OC)c2OC)c(OC)c1

>  <Ratio IC50>
3.2

$$$$

* * *

# Tgt: UniProt P05177
# Sequence (P05177 whole entry): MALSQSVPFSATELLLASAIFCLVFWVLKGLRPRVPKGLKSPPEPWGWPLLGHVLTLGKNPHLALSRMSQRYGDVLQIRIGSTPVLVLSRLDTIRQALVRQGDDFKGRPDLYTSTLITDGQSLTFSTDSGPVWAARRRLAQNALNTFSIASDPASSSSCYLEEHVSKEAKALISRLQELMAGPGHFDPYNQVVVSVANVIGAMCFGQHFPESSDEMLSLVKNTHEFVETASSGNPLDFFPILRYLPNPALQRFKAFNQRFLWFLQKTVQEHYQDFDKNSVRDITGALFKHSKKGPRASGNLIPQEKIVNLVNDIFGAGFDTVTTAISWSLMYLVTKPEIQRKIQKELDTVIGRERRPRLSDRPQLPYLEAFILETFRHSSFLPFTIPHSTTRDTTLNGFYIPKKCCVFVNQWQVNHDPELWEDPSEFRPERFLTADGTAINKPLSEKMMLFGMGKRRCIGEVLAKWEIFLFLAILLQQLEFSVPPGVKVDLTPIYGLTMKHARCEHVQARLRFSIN
# Experiment Summary: Inhibition of human CYP1A2 expressed in Escherichia coli assessed as changes in ethoxyresorufin O-deethylation activity after 3 mins by spectrofluorometer analysis
# Format: ADME
Classify: y when IC50 is strictly less than 200 nM; n when IC50 is not.

>  <Sample Smiles>
COc1ccc(/C=C/c2c(OC)cc(OC)cc2OC)c(OC)c1

>  <Cat>
y

$$$$
>  <Sample Smiles>
COc1ccc(/C=C/c2cc(OC)c(OC)cc2OC)c(OC)c1

>  <Cat>
n

$$$$
>  <Sample Smiles>
COc1ccc(/C=C/c2c(OC)cccc2OC)c(OC)c1

>  <Cat>
y

$$$$
>  <Sample Smiles>
COc1cccc(/C=C/c2ccc(OC)cc2OC)c1

>  <Cat>
n

$$$$

* * *

# Tgt: Cytochrome P450 1A1 (Homo sapiens)
# Sequence (P04798 whole entry): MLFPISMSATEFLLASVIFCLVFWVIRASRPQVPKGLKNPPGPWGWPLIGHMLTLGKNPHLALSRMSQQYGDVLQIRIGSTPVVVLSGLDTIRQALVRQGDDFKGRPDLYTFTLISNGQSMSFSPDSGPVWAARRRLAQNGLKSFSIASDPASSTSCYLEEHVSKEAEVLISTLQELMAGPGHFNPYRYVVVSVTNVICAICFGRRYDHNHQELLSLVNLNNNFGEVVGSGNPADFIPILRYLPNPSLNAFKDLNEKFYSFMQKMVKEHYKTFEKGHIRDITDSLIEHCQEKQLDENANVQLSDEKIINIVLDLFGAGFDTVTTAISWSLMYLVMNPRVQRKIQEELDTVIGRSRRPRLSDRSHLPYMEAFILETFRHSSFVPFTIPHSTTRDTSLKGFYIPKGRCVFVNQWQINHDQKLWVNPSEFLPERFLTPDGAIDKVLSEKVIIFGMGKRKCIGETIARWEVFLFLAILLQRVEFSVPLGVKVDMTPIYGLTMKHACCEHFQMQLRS
pKi: −log10 of the molar value.
Reported Property: pKi

>  <Sample Smiles>
COc1ccc(/C=C/c2cc(O)cc(O)c2)cc1

>  <Tgt>
Cytochrome P450 1A1 (Homo sapiens)

>  <Reported Property>
pKi

>  <Endpoint Value>
6.80

$$$$
>  <Sample Smiles>
COc1cc(/C=C/c2ccc(O)cc2)cc(OC)c1

>  <Tgt>
Cytochrome P450 1A1 (Homo sapiens)

>  <Reported Property>
pKi

>  <Endpoint Value>
6.24

$$$$
>  <Sample Smiles>
COc1cc(O)cc(/C=C/c2ccc(O)cc2)c1

>  <Tgt>
Cytochrome P450 1A1 (Homo sapiens)

>  <Reported Property>
pKi

>  <Endpoint Value>
6.92

$$$$

* * *

# Lookup of reported pIC50 keyed by entry
# Tgt: Cytochrome P450 1A1 (Homo sapiens, UniProt P04798)
# Sequence (P04798 whole entry): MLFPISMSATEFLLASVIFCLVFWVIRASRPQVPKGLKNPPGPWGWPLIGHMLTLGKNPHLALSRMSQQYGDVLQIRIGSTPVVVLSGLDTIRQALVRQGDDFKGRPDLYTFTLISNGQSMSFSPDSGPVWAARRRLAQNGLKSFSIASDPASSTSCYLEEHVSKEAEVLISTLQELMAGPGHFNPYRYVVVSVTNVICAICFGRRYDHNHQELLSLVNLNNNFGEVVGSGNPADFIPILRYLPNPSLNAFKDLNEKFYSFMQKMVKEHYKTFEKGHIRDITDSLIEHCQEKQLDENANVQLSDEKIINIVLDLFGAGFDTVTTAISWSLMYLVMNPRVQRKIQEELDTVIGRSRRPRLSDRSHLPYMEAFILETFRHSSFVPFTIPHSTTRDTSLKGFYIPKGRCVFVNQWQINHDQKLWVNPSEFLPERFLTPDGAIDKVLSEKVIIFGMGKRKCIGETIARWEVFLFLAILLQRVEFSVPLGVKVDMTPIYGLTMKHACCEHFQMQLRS
pIC50: −log10 of the molar value.
Reported Property: pIC50

>  <Sample Smiles>
COc1ccc(/C=C/c2cc(OC)c(OC)cc2OC)c(OC)c1

>  <Tgt>
Cytochrome P450 1A1 (Homo sapiens, UniProt P04798)

>  <Endpoint Value>
7.11

$$$$
>  <Sample Smiles>
COc1ccc(OC)c(/C=C/c2ccc(OC)cc2OC)c1

>  <Tgt>
Cytochrome P450 1A1 (Homo sapiens, UniProt P04798)

>  <Endpoint Value>
6.46

$$$$
>  <Sample Smiles>
COc1ccc(/C=C/c2ccc(OC)cc2OC)c(OC)c1

>  <Tgt>
Cytochrome P450 1A1 (Homo sapiens, UniProt P04798)

>  <Endpoint Value>
6.65

$$$$
>  <Sample Smiles>
COc1ccc(/C=C/c2ccccc2OC)c(OC)c1

>  <Tgt>
Cytochrome P450 1A1 (Homo sapiens, UniProt P04798)

>  <Endpoint Value>
6.47

$$$$
>  <Sample Smiles>
COc1ccc(/C=C/c2cccc(OC)c2OC)c(OC)c1

>  <Tgt>
Cytochrome P450 1A1 (Homo sapiens, UniProt P04798)

>  <Endpoint Value>
6.72

$$$$
>  <Sample Smiles>
COc1ccc(/C=C/c2ccc(OC)c(OC)c2)c(OC)c1

>  <Tgt>
Cytochrome P450 1A1 (Homo sapiens, UniProt P04798)

>  <Endpoint Value>
6.72

$$$$
